Tested on: HCV replicon 1A Y93H
Experiment: Cell-based HCV replicon assay, 1A Y93H
Conditions: Hepatitis C virus, 72 h, read-out: 1A Y93H IC50 (nM), replicon cells, 3 days, replicon RNA by real-time PCR
# log10 IC50 listing for each entry below
Would you kindly interpret these values as log10 of IC50 expressed in nM?

Asked: Look up log10 IC50 with HCV replicon 1A Y93H for this compound: COC(=O)N[C@H](C(=O)N1C[C@H](F)C[C@H]1c1ncc(-c2ccc3c(c2)OC(C2CC2)C2=C3COc3cc(-c4cnc([C@@H]5C[C@@H](F)CN5C(=O)[C@@H](NC(=O)OC)C(C)C)[nH]4)ccc32)[nH]1)C(C)C (single isomer, unassigned)
Given back: 0.36

Asked: Look up log10 IC50 with HCV replicon 1A Y93H for this compound: CC(C)(C)OC(=O)N1C[C@H](F)C[C@H]1c1ncc(-c2ccc3c(c2)OCc2c-3c(=O)oc3cc(-c4cnc([C@@H]5C[C@@H](F)CN5C(=O)OC(C)(C)C)[nH]4)ccc23)[nH]1
Given back: 3.49

Asked: Look up log10 IC50 with HCV replicon 1A Y93H for this compound: COC(=O)N[C@H](C(=O)N1CCC[C@H]1c1ncc(-c2ccc3c(c2)OC(c2cccc(OC)c2)C2=C3COc3cc(-c4cnc([C@@H]5CCCN5C(=O)[C@@H](NC(=O)OC)C(C)C)[nH]4)ccc32)[nH]1)C(C)C (single isomer, unassigned)
Given back: 0.47

Asked: Look up log10 IC50 with HCV replicon 1A Y93H for this compound: COC(=O)N[C@H](C(=O)N1CCC[C@H]1c1ncc(-c2ccc3c(c2)OCC2=C3COc3cc(-c4cnc([C@@H]5C[C@H]6C[C@H]6N5C(=O)[C@@H](NC(=O)OC)C(C)C)[nH]4)ccc32)[nH]1)C(C)C
Given back: 0.30

Asked: Look up log10 IC50 with HCV replicon 1A Y93H for this compound: COC(=O)N[C@H](C(=O)N1CCC[C@H]1c1ncc(-c2ccc3c(c2)OC(c2ccccc2)C2=C3COc3cc(-c4cnc([C@@H]5CCCN5C(=O)[C@@H](NC(=O)OC)C(C)C)[nH]4)ccc32)[nH]1)C(C)C (stereo partly drawn)
Given back: 0.63

Could you now look at the following compound, please?
Asked: Look up log10 IC50 with HCV replicon 1A Y93H for this compound: COC(=O)N[C@H](C(=O)N1C[C@H](F)C[C@H]1c1ncc(-c2ccc3c(c2)OCc2c-3c(=O)oc3cc(-c4cnc([C@@H]5C[C@@H](F)CN5C(=O)[C@@H](NC(=O)OC)C(C)C)[nH]4)ccc23)[nH]1)C(C)C
Given back: -0.47

---

Tested on: HCV replicon genotype 1A
Assay: Cell-based HCV replicon assay, 1A
Settings: replicon cells, 3 days, replicon RNA by real-time PCR
observable: pIC50
Would you please state pIC50, meaning minus log10 of the concentration in mol/L, as a bare number?

Field: example entries. Status: answers known.
Asked: Please report the recorded pIC50 for COC(=O)N[C@H](C(=O)N1CCC[C@H]1c1ncc(-c2ccc3c(c2)OC(c2cccc(OC)c2)C2=C3COc3cc(-c4cnc([C@@H]5CCCN5C(=O)[C@@H](NC(=O)OC)C(C)C)[nH]4)ccc32)[nH]1)C(C)C (single isomer, unassigned) [Compound 11] .
Given back: 11.00

Asked: Please report the recorded pIC50 for COC(=O)N[C@H](C(=O)N1CCC[C@H]1c1ncc(-c2ccc3c(c2)OC(c2cccc(OC)c2)C2=C3COc3cc(-c4cnc([C@@H]5CCCN5C(=O)[C@@H](NC(=O)OC)C(C)C)[nH]4)ccc32)[nH]1)C(C)C (single isomer, unassigned) [Compound 10] .
Given back: 11.46

Asked: Please report the recorded pIC50 for COC(=O)N[C@H](C(=O)N1CCC[C@H]1c1ncc(-c2ccc3c(c2)OC(C)C2=C3COc3cc(-c4cnc([C@@H]5CCCN5C(=O)[C@@H](NC(=O)OC)C(C)C)[nH]4)ccc32)[nH]1)C(C)C (single isomer, unassigned) [Compound 13] .
Given back: 10.46

Further cases:
Asked: Please report the recorded pIC50 for COC(=O)N[C@H](C(=O)N1CCC[C@H]1c1ncc(-c2ccc3c(c2)OC(C2CC2)C2=C3COc3cc(-c4cnc([C@@H]5CCCN5C(=O)[C@@H](NC(=O)OC)C(C)C)[nH]4)ccc32)[nH]1)C(C)C (single isomer, unassigned) [Compound 18] .
Given back: 11.09

---

System: HCV replicon 2B
Assay: Cell-based HCV replicon assay, 2B
Conditions: replicon cells, 3 days, replicon RNA by real-time PCR
Protocol: To measure cell-based anti-HCV activity of selected compounds of the present invention two complimentary assays were employed. […] The replicon RNA level was measured using real time PCR (TaqMan® EZ RT-PCR, Applied Biosystems 403028) with the following primers and probes: […] The amount of HCV replicon RNA per cell is quantified using a linear regression curve for a known nanogram (ng) amount of HCV replicon total RNA. […]
observable: IC50 (nM)
Report only the number, with the unit nM understood.

Asked: Please report the recorded IC50 for COC(=O)N[C@H](C(=O)N1CCC[C@H]1c1ncc(-c2ccc3c(c2)OC(C)C2=C3COc3cc(-c4cnc([C@@H]5CCCN5C(=O)[C@@H](NC(=O)OC)C(C)C)[nH]4)ccc32)[nH]1)C(C)C (single isomer, unassigned) [Compound 13] .
Given back: 12

Asked: Please report the recorded IC50 for COC(=O)N[C@H](C(=O)N1CCC[C@H]1c1ncc(-c2ccc3c(c2)OC(C)C2=C3COc3cc(-c4cnc([C@@H]5CCCN5C(=O)[C@@H](NC(=O)OC)C(C)C)[nH]4)ccc32)[nH]1)C(C)C (single isomer, unassigned) [Compound 14] .
Given back: 24.5

Asked: Please report the recorded IC50 for COC(=O)N[C@H](C(=O)N1CCC[C@H]1c1ncc(-c2ccc3c(c2)OC(c2ccccc2)C2=C3COc3cc(-c4cnc([C@@H]5CCCN5C(=O)[C@@H](NC(=O)OC)C(C)C)[nH]4)ccc32)[nH]1)C(C)C (single isomer, unassigned) [Compound 9] .
Given back: 1.9

Asked: Please report the recorded IC50 for COC(=O)N[C@H](C(=O)N1CCC[C@H]1c1ncc(-c2ccc3c(c2)OC(C)C2=C3COc3cc(-c4cnc([C@@H]5CCCN5C(=O)[C@@H](NC(=O)OC)C(C)C)[nH]4)ccc32)[nH]1)C(C)C (single isomer, unassigned) [Compound 15] .
Given back: 15.3

Further cases:
Asked: Please report the recorded IC50 for COC(=O)N[C@H](C(=O)N1CCC[C@H]1c1ncc(-c2ccc3c(c2)OC(c2ccccc2)C2=C3COc3cc(-c4cnc([C@@H]5CCCN5C(=O)[C@@H](NC(=O)OC)C(C)C)[nH]4)ccc32)[nH]1)C(C)C (single isomer, unassigned) [Compound 8] .
Given back: 6.65

---

Test system: HCV replicon genotype 1A
Experiment: Cell-based HCV replicon assay, 1A
Conditions: replicon cells, 3 days, replicon RNA by real-time PCR
observable: IC50 (nM)
Report only the number, with the unit nM understood.

Field: example entries. Status: answers known.
Asked: Please report the recorded IC50 for COC(=O)N[C@H](C(=O)N1CCC[C@H]1c1ncc(-c2ccc3c(c2)OC(C)C2=C3COc3cc(-c4cnc([C@@H]5CCCN5C(=O)[C@@H](NC(=O)OC)C(C)C)[nH]4)ccc32)[nH]1)C(C)C (single isomer, unassigned) [Compound 15] .
Given back: 0.0229

Asked: Please report the recorded IC50 for COC(=O)N[C@H](C(=O)N1C[C@H](F)C[C@H]1c1ncc(-c2ccc3c(c2)OC(C2CC2)C2=C3COc3cc(-c4cnc([C@@H]5C[C@@H](F)CN5C(=O)[C@@H](NC(=O)OC)C(C)C)[nH]4)ccc32)[nH]1)C(C)C (single isomer, unassigned) [Compound 19] .
Given back: 0.0192

Asked: Please report the recorded IC50 for COC(=O)N[C@H](C(=O)N1C[C@H](F)C[C@H]1c1ncc(-c2ccc3c(c2)OC(C2CC2)C2=C3COc3cc(-c4cnc([C@@H]5C[C@@H](F)CN5C(=O)[C@@H](NC(=O)OC)C(C)C)[nH]4)ccc32)[nH]1)C(C)C (single isomer, unassigned) [Compound 21] .
Given back: 0.0156

Further cases:
Asked: Please report the recorded IC50 for COC(=O)N[C@H](C(=O)N1CCC[C@H]1c1ncc(-c2ccc3c(c2)OC(c2cccc(OC)c2)C2=C3COc3cc(-c4cnc([C@@H]5CCCN5C(=O)[C@@H](NC(=O)OC)C(C)C)[nH]4)ccc32)[nH]1)C(C)C (single isomer, unassigned) [Compound 12] .
Given back: 0.0251

---

# pIC50 listing for each entry below
Tested on: HCV replicon 3A
Assay: Cell-based HCV replicon assay, 3A
Conditions: Hepatitis C virus, 72 h, replicon cells, 3 days, replicon RNA by real-time PCR
Would you please state pIC50, meaning minus log10 of the concentration in mol/L, as a bare number?

Field: example entries. Status: answers known.
Asked: Please report the recorded pIC50 for COC(=O)N[C@H](C(=O)N1CCC[C@H]1c1ncc(-c2ccc3c(c2)OC(C)C2=C3COc3cc(-c4cnc([C@@H]5CCCN5C(=O)[C@@H](NC(=O)OC)C(C)C)[nH]4)ccc32)[nH]1)C(C)C (single isomer, unassigned) [Compound 13] .
Given back: 9.00

Asked: Please report the recorded pIC50 for COC(=O)N[C@H](C(=O)N1CCC[C@H]1c1ncc(-c2ccc3c(c2)OCC2=C3COc3cc(-c4cnc([C@@H]5C[C@H]6C[C@H]6N5C(=O)[C@@H](NC(=O)OC)C(C)C)[nH]4)ccc32)[nH]1)C(C)C [Compound 22] .
Given back: 8.69

Asked: Please report the recorded pIC50 for COC(=O)N[C@H](C(=O)N1CCC[C@H]1c1ncc(-c2ccc3c(c2)OC(c2ccccc2)C2=C3COc3cc(-c4cnc([C@@H]5CCCN5C(=O)[C@@H](NC(=O)OC)C(C)C)[nH]4)ccc32)[nH]1)C(C)C (some centres unmarked) [Compound 7] .
Given back: 10.21

Asked: Please report the recorded pIC50 for COC(=O)N[C@H](C(=O)N1C[C@H](F)C[C@H]1c1ncc(-c2ccc3c(c2)OCc2c-3c(=O)oc3cc(-c4cnc([C@@H]5C[C@@H](F)CN5C(=O)[C@@H](NC(=O)OC)C(C)C)[nH]4)ccc23)[nH]1)C(C)C [Compound 5] .
Given back: 9.00

Further cases:
Asked: Please report the recorded pIC50 for COC(=O)N[C@H](C(=O)N1CCC[C@H]1c1ncc(-c2ccc3c(c2)OC(C2CC2)C2=C3COc3cc(-c4cnc([C@@H]5CCCN5C(=O)[C@@H](NC(=O)OC)C(C)C)[nH]4)ccc32)[nH]1)C(C)C (single isomer, unassigned) [Compound 16] .
Given back: 8.43
